Values from patent US12187816B2

Let's look at some compounds and their measured DC50.
# target_entity: BRD4 (Homo sapiens, UniProt O60885)
# Construct: Mean 488 intensity of BRD4 quantitated in nuclear region; endogenous in cells; host or cells: EoL-1 eosinophilic leukemia cells
# experiment: BRD4 degradation assay in EOL1 cells (immunofluorescence imaging)
# Type: cell-based
# test_context: EoL-1 eosinophilic leukemia cells, 4 hours treatment, nuclear BRD4 immunofluorescence
Starred links: 1 amine or outer side, 2 acyl side, 3 side chain; linkers in the order of their positions; H or OH if unused. Positions of bridges follow the written chain, without caps; N, C: chain ends. Non-standard residues stand in square brackets, D forms with d. Residues, ends and D or L forms follow the SMILES beside them. *: point of attachment. JQ1acid = Cc1sc2c(c1C)C(c1ccc(Cl)cc1)=N[C@@H](CC(=O)*)c1nnc(C)n1-2; dPhg(4-(4-Me-thiazol-5-yl)) = Cc1ncsc1-c1ccc([C@@H](N)C(=O)O)cc1; X5 = O=C([C@@H](Cc1ccc(Br)s1)N[*:1])[*:2]; Hyp = O=C(O)[C@@H]1C[C@@H](O)CN1; Tle = CC(C)(C)[C@H](N)C(=O)O; dDap = NC[C@@H](N)C(=O)O

Cc1ncsc1-c1ccc([C@H]2NC(=O)[C@@H]3C[C@@H](O)CN3C(=O)[C@H](C(C)(C)C)NC(=O)CNC(=O)[C@H](CCC(N)=O)NC(=O)[C@@H](CNC(=O)C[C@@H]3N=C(c4ccc(Cl)cc4)c4c(sc(C)c4C)-n4c(C)nnc43)NC(=O)CNC2=O)cc1 [Compound 6] (cyclo(G[Tle][Hyp][dPhg(4-(4-Me-thiazol-5-yl))]G[dDap](JQ1acid)Q)) ... < 20000 nM

Would you kindly share the measured DC50 for Cc1sc2c(c1C)C(c1ccc(Cl)cc1)=N[C@@H](CC(=O)NC[C@H]1NC(=O)[C@@H](C)NC(=O)[C@@H](Cc3ccc(-c4ccccc4)cc3)NC(=O)[C@@H]3C[C@@H](O)CN3C(=O)[C@H](C(C)(C)C)n3cc(nn3)COCCNC1=O)c1nnc(C)n1-2 [Compound 56] ?
< 50 nM

Recorded DC50 for Cc1sc2c(c1C)C(c1ccc(Cl)cc1)=N[C@@H](CC(=O)NC[C@H]1NC(=O)CNC(=O)[C@@H](Cc3ccc(Br)s3)NC(=O)[C@@H]3C[C@@H](O)CN3C(=O)[C@H](C(C)(C)C)NC(=O)CSC[C@H](C(N)=O)NC1=O)c1nnc(C)n1-2 [Compound 23] ({CH2CO}-[Tle][Hyp][X5]G[dDap](JQ1acid)[dC]-NH2; thioether N-6) , please?
< 1000 nM

###

# target_entity: BRD4 (Homo sapiens, UniProt O60885)
# Construct: Mean 488 intensity of BRD4 quantitated in nuclear region; endogenous in cells; host or cells: EoL-1 eosinophilic leukemia cells
# experiment: BRD4 degradation assay in EOL1 cells (immunofluorescence imaging)
# Format: cell-based
# test_context: EoL-1 eosinophilic leukemia cells, 4 hours treatment, nuclear BRD4 immunofluorescence
Starred links: 1 amine or outer side, 2 acyl side, 3 side chain; linkers in the order of their positions; H or OH if unused. Positions of bridges follow the written chain, without caps; N, C: chain ends. Non-standard residues stand in square brackets, D forms with d. Residues, ends and D or L forms follow the SMILES beside them. *: point of attachment. JQ1acid = Cc1sc2c(c1C)C(c1ccc(Cl)cc1)=N[C@@H](CC(=O)*)c1nnc(C)n1-2; dPhg(4-(4-Me-thiazol-5-yl)) = Cc1ncsc1-c1ccc([C@@H](N)C(=O)O)cc1; Phg(4-(4-Me-thiazol-5-yl)) = Cc1ncsc1-c1ccc([C@H](N)C(=O)O)cc1; X4 = O=C([C@H]1CN([*:3])CCN1[*:1])[*:2]; Hyp = O=C(O)[C@@H]1C[C@@H](O)CN1; Tle = CC(C)(C)[C@H](N)C(=O)O; dDap = NC[C@@H](N)C(=O)O
Listed below: DC50 values for each entry.

Worked examples, 2 compounds total:
Cc1ncsc1-c1ccc([C@H]2NC(=O)[C@@H]3C[C@@H](O)CN3C(=O)[C@H](C(C)(C)C)NC(=O)CSC[C@H](C(N)=O)NC(=O)[C@H]3CN(C(=O)C[C@@H]4N=C(c5ccc(Cl)cc5)c5c(sc(C)c5C)-n5c(C)nnc54)CCN3C(=O)CNC2=O)cc1 [Compound 25] ({CH2CO}-[Tle][Hyp][dPhg(4-(4-Me-thiazol-5-yl))]G[X4](JQ1acid)[dC]-NH2; thioether N-6) ... < 20 µM
Cc1sc2c(c1C)C(c1ccc(Cl)cc1)=N[C@@H](CC(=O)NC[C@H]1NC(=O)[C@@H](C)NC(=O)[C@@H](Cc3ccc(-c4ccccc4)cc3)NC(=O)[C@@H]3C[C@@H](O)CN3C(=O)[C@H](C(C)(C)C)n3cc(nn3)COCCNC1=O)c1nnc(C)n1-2 [Compound 201] ... < 0.05 µM

Next item in the queue.
Given the compound Cc1ncsc1-c1ccc([C@@H]2NC(=O)[C@@H]3C[C@@H](O)CN3C(=O)[C@H](C(C)(C)C)NC(=O)CNC(=O)[C@H](CCC(N)=O)NC(=O)[C@@H](CNC(=O)C[C@@H]3N=C(c4ccc(Cl)cc4)c4c(sc(C)c4C)-n4c(C)nnc43)NC(=O)CNC2=O)cc1 [Compound 7] (cyclo(G[Tle][Hyp][Phg(4-(4-Me-thiazol-5-yl))]G[dDap](JQ1acid)Q)) , what is its reported DC50?
< 20 µM
